Kindly state pKd for each of the entries shown.
molecular target: T1, hSIRPβ1D1 with histidine tag (human, UniProt O00241 30-148); assay: SPR (Biacore 3000), IgG captured on anti-human IgG, His-tagged D1 analyte
T1 construct: analyte of the Biacore experiments; also called hSIRPβD1; not shown: histidine tag
T1 sequence (O00241 30-148): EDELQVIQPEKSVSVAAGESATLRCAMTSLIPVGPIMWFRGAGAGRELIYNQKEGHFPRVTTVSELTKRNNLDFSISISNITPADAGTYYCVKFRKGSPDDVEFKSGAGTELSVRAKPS
# pKd: negative log10 of molar concentration; output just the value

Task: Give the measured pKd of Ab2_G4 (antibody, human IgG4 S228P, kappa, V domains shown, human IgG4 format) VH: EVQLVESGGGLVKPGGSLRLSCAASGFTFSSYVMSWVRQTPGKGLEWVATISSGGTYTYYPDSVKGRFTLSRDNAKNSLYLQMNSLRAEDTAVYYCASSVDGSAFDYWGQGTTVTVSS VL: DIVITQSPASLAVSLGERATISCRASESVDSYGMSFMHWYQQKPGQPPKLLIYRASNLESGVPDRFSGSGSRTDFTLTINPLQAEDVATYYCHQSSENLPWTFGGGTKVEIKR .
Result: 7.27

Task: Quick one: pKd for Ab9_G2 (antibody, human IgG2, V domains shown, same antibody as Ab9_G4 except human IgG2 CH1, hinge, CH2 and CH3) VH: EVQLVESGGGLVKPGGSLRLSCAASGFTFSSYVMSWVRQTPGKGLEWVATISSGGTYTYYPNSVKGRFTLSRDNAKNSLYLQMNSLRAEDTAVYYCVSSMTGSSFDYWGQGTTVTVSS VL: DIVITQSPASLAVSLGERATISCRASESVDSYGNSFMHWYQQKPGQPPKLLIYRASNLESGVPDRFSGSGSRTDFTLTINPLQAEDVATYYCHQSSEQLPWTFGGGTKVEIKR ?
Result: 8.18

Task: What measured pKd goes with Ab1_G2 (antibody, human IgG2, V domains shown) VH: EVQLVESGGGLVKPGGSLRLSCAASGFTFSSYVMSWVRQTPGKGLEWVATISSGGTYTYYPSSVKGRFTLSRDNAKNSLYLQMNSLRAEDTAVYYCASSLTGSSFDYWGQGTTVTVSS VL: DIVLTQSPASLAVSLGERATISCRASESVDLYGTSFMHWYQQKPGQPPKLLIYRASNLESGVPDRFSGSGSRTDFTLTINPLQAEDVATYYCHQSSDELPWTFGGGTKVEIKR ?
Result: 8.86

Task: Tell me the measured pKd of Ab11_G2 (antibody, human IgG2, V domains shown, same antibody as Ab11_G4 except human IgG2 CH1, hinge, CH2 and CH3) VH: EVQLVESGGGLVKPGGSLRLSCAASGFTFSSYVMSWVRQTPGKGLEWVATISSGGTYTYYPDSVKGRFTLSRDNAKNSLYLQMNSLRAEDTAVYYCASQLTGSEFDYWGQGTTVTVSS VL: DIVITQSPASLAVSLGERATISCRASESVDSYGNSFMHWYQQKPGQPPKLLIYRASNLESGVPDRFSGSGSRTDFTLTINPLQAEDVATYYCHQSGDLPWTFGGGTKVEIKR , please.
Result: 8.07

Task: Look up pKd for this binder: Ab8_G4 (antibody, human IgG4 S228P, kappa, V domains shown, human IgG4 format) VH: EVQLVESGGGLVKPGGSLRLSCAASGFTFSSYVMSWVRQTPGKGLEWVATISSGGTYTYYPESVKGRFTLSRDNAKNSLYLQMNSLRAEDTAVYYCASQLTGSEFDYWGQGTTVTVSS VL: DIVMTQSPASLAVSLGERATISCRASESVDSYGNSFMHWYQQKPGQPPKLLIYRASNLESGVPDRFSGSGSRTDFTLTINPLQAEDVATYYCHQSADLPWTFGGGTKVEIKR
Result: 7.35
